- system_name: T1, Monomeric monkey CD48-mmH (monkey)
- T1 construct: Soluble monkey CD48 with a myc-myc-hexa-histidine C-terminal tag; the whole entry is the construct; also called mfCD48-mmH
- T1 chain: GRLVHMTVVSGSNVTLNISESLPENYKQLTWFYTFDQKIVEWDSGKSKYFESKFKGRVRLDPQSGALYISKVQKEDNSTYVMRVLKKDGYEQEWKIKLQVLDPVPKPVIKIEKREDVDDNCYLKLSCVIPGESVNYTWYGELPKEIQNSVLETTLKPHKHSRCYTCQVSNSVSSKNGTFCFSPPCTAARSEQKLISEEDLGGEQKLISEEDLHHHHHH
- assay_name: SPR (Biacore), antibody captured by anti-Fc, CD48 in solution, 25 C
assay_metric: kon (M⁻¹ s⁻¹)
Give your result in M⁻¹ s⁻¹ as a bare value.

As a guide, the following entries are already answered.
binder	kon (M⁻¹ s⁻¹)
H4H1774P (antibody, human IgG4, V domains shown, Human IgG4 Fc (H4H)) VH: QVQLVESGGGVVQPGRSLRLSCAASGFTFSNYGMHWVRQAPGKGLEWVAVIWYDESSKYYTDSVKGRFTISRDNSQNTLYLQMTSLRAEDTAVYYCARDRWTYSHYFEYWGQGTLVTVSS VL: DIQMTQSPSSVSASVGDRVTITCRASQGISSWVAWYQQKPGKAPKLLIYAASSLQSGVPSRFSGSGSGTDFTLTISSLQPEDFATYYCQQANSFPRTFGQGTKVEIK	263000
H4H1770P (antibody, human IgG4, V domains shown, Human IgG4 Fc (H4H)) VH: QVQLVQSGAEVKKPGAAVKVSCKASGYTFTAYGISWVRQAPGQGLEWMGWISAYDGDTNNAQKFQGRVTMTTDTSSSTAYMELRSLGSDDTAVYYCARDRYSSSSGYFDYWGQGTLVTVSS VL: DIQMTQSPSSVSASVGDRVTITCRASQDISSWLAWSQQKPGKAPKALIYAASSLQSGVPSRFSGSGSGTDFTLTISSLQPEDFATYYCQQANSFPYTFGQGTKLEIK	720000
H4H1763N (antibody, V domains shown, Human IgG4 Fc (H4H)) VH: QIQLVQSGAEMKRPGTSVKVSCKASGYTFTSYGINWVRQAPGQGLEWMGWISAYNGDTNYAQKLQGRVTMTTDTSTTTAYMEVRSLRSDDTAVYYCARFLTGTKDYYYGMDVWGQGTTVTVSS VL: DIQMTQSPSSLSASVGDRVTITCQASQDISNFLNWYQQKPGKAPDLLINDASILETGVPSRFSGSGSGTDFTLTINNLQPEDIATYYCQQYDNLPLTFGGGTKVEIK	527000
H4H1778P (antibody, human IgG4, V domains shown, Human IgG4 Fc (H4H)) VH: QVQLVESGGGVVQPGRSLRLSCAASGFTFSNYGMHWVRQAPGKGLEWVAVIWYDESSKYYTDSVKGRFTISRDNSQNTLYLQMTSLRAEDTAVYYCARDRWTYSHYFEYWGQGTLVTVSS VL: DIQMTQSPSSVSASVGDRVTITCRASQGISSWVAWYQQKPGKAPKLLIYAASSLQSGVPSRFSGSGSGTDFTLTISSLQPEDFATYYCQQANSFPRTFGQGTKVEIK	276000
H4H1713N (antibody, V domains shown, Human IgG4 Fc (H4H)) VH: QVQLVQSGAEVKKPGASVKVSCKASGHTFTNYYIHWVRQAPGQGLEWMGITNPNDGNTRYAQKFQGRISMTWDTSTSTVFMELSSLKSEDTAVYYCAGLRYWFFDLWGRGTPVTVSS VL: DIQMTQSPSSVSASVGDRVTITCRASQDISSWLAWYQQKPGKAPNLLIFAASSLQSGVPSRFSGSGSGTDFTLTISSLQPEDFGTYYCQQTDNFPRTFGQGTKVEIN	315000

Record H4H1707N (antibody, V domains shown, Human IgG4 Fc (H4H)) VH: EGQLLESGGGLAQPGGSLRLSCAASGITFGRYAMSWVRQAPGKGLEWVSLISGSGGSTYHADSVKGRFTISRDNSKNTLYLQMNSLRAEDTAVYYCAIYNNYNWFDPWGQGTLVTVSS VL: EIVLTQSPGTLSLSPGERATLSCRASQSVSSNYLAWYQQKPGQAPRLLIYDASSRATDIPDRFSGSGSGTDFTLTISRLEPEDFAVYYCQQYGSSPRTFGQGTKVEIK . Reported kon: 289000

Record H4H1779P (antibody, human IgG4, V domains shown, Human IgG4 Fc (H4H)) VH: QVQLVESGGGVVQPGRSLRLSCAASGFTFSNYGMHWVRQAPGKGLEWVAVIWYDESSKHYADSVKGRFTISRDNSQNTLYLQMTSLRAEDTAVYYCARDRWTYSHYFEYWGQGTLVTVSS VL: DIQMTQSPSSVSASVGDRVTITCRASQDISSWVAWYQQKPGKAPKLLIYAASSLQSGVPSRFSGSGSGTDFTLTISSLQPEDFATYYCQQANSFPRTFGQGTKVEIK . Reported kon: 301000

Record H4H1771P (antibody, human IgG4, V domains shown, Human IgG4 Fc (H4H)) VH: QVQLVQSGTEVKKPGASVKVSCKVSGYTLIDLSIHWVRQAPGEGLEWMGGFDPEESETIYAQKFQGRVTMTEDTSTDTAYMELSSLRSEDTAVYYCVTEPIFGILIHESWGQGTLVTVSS VL: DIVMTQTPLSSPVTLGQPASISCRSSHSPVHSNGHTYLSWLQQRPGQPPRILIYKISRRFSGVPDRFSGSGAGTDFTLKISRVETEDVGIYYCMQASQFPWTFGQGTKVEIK . Reported kon: 1.05e+06

Record H4H1775P (antibody, human IgG4, V domains shown, Human IgG4 Fc (H4H)) VH: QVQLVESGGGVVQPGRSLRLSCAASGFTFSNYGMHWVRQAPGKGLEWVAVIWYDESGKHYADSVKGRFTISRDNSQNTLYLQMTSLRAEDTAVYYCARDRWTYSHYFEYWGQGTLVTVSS VL: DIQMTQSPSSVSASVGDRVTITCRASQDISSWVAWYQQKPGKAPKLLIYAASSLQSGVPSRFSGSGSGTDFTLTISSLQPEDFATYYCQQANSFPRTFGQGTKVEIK . Reported kon: 291000

Record H4H1781P (antibody, human IgG4, V domains shown, Human IgG4 Fc (H4H)) VH: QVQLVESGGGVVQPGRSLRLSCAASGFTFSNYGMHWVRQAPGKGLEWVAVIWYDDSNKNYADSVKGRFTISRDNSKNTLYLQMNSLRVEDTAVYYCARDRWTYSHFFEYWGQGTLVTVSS VL: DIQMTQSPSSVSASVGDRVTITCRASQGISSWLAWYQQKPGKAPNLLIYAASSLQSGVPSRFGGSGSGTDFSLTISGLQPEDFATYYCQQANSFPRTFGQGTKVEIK . Reported kon: 298000

Record H4H1772P (antibody, human IgG4, V domains shown, Human IgG4 Fc (H4H)) VH: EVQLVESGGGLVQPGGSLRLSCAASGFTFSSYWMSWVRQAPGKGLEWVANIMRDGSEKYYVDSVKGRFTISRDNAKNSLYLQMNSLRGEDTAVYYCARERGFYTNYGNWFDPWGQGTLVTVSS VL: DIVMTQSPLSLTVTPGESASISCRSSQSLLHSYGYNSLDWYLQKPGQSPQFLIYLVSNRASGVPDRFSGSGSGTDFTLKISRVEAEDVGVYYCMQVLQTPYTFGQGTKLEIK . Reported kon: 461000

The reported measurements were obtained from patent US20130230533A1.
